# System: HepG2-CANX-COX4
# experiment.summary: phenotypically active (imaging signature differs from DMSO and reproducible) at any of 0.3-9 uM (binary (1 = active, 0 = inactive)); higher = active
# measurement.setup: treatment time: 24 h
Structures can show the parent of a compound that is named as a salt.
measurement.kind: phenotypically active

INSERT INTO measurements (molecule, test_result) VALUES
  ('NC(=O)Nc1sc(-c2ccc(F)cc2)cc1C(N)=O', 1),
  ('COc1cc(NC(=O)c2cccc(-n3cc(NC(=O)Nc4cccc(C)c4)cn3)c2)cc(OC)c1OC', 0),
  ('COC1=C(O)C(=O)c2ccccc2C1=O [2-hydroxy-3-methoxy-naphtoquinone]', 0),
  ('COc1ncc2cc(C(=O)Nc3cc(C(=O)NCc4cccc(Cl)c4)ccc3Cl)c(=O)[nH]c2n1', 0),
  ('C[C@@H](N)[C@H]1CC[C@H](C(=O)Nc2ccncc2)CC1', 1),
  ('NCCCC[C@H](N[C@@H](CCc1ccccc1)C(=O)O)C(=O)N1CCC[C@H]1C(=O)O [lisinopril]', 0),
  ('CC(C)[N+](C)(CCOC(=O)C1c2ccccc2Oc2ccccc21)C(C)C [propantheline]', 0),
  ('CCCC(=O)O [Sodium butyrate]', 0),
  ('CC1CNCCN1S(=O)(=O)c1cccc2cnccc12 (stereo unspecified) [H-7 dihydrochloride]', 1),
  ('C[C@@H]1O[C@@H](OC[C@H]2O[C@@H](Oc3c(-c4ccc(O)c(O)c4)oc4cc(O)cc(O)c4c3=O)[C@H](O)[C@@H](O)[C@@H]2O)[C@H](O)[C@H](O)[C@H]1O [Quercétine-3-rutinoside]', 0),
  ('CC(C)CCN1c2nc(Nc3cc(F)c(O)c(F)c3)ncc2N(C)C(=O)C1C (stereo unspecified)', 1);
